From: ChEMBL document CHEMBL1143367

# Protocol: Therapeutic index, ratio of HC50 for defibrinated sheep RBC to MIC50 for colistin-resistant Acinetobacter baumannii 19606R
# Test Conditions: defibrinated sheep red blood cells, read-out: TI
*1 amine or outer side, *2 acyl side, *3 side chain or, on linkers, in order; H or OH if unused. Where a SMILES comes first, the peptide text is derived from it. [ ]: non-standard residue; d: D form. X1 = O=C([C@H](N[*:1])C1c2ccccc2-c2ccccc21)[*:2]; d1Nal = N[C@H](Cc1cccc2ccccc12)C(=O)O; d2Nal = N[C@H](Cc1ccc2ccccc2c1)C(=O)O; Orn = NCCC[C@H](N)C(=O)O
Property Measured: selectivity ratio

Task: Give the value of selectivity ratio reported for the following: CC(C)C[C@@H]1NC(=O)[C@H](CCCN)NC(=O)[C@H](C(C)C)NC(=O)[C@@H]2CCCN2C(=O)[C@@H](C2c3ccccc3-c3ccccc32)NC(=O)[C@H](CC(C)C)NC(=O)[C@H](CCCN)NC(=O)[C@H](C(C)C)NC(=O)[C@@H]2CCCN2C(=O)[C@@H](C2c3ccccc3-c3ccccc32)NC1=O (cyclo(L[X1]PV[Orn]L[X1]PV[Orn]))
Result: > 0.1

Task: Give the value of selectivity ratio reported for the following: CC(C)C[C@@H]1NC(=O)[C@H](CCCN)NC(=O)[C@H](C(C)C)NC(=O)[C@@H]2CCCN2C(=O)[C@@H](Cc2cccc3ccccc23)NC(=O)[C@H](CC(C)C)NC(=O)[C@H](CCCN)NC(=O)[C@H](C(C)C)NC(=O)[C@@H]2CCCN2C(=O)[C@@H](Cc2cccc3ccccc23)NC1=O (cyclo(L[d1Nal]PV[Orn]L[d1Nal]PV[Orn]))
Result: > 0.1

Task: Give the value of selectivity ratio reported for the following: CC(C)C[C@@H]1NC(=O)[C@H](CCCN)NC(=O)[C@H](C(C)C)NC(=O)[C@@H]2CCCN2C(=O)[C@@H](Cc2ccc3ccccc3c2)NC(=O)[C@H](CC(C)C)NC(=O)[C@H](CCCN)NC(=O)[C@H](C(C)C)NC(=O)[C@@H]2CCCN2C(=O)[C@@H](Cc2ccc3ccccc3c2)NC1=O (cyclo(L[d2Nal]PV[Orn]L[d2Nal]PV[Orn]))
Result: > 0.2
